System: Mycobacterium tuberculosis Erdman (autoluminescent)
measurementProtocol: FIC50 (Loewe) at 50% inhibition (log2); higher = more antagonistic
conditionParameters: in vitro model: dormancy (butyrate + nitrate, low O2); time point: terminal (~4-5 doublings, model-specific)
I'd appreciate it if you could supply FIC50 values for the items below.
Keep it simple and answer with nothing but the number.

Incoming: Could you tell me which FIC50 is on file for CC(C)/N=c1\cc2n(-c3ccc(Cl)cc3)c3ccccc3nc-2cc1Nc1ccc(Cl)cc1 [clofazimine] + CO[C@H]1/C=C/O[C@@]2(C)Oc3c(C)c(O)c4c(O)c(c(/C=N/N5CCN(C6CCCC6)CC5)c(O)c4c3C2=O)NC(=O)/C(C)=C\C=C\[C@H](C)[C@H](O)[C@@H](C)[C@@H](O)[C@@H](C)[C@H](OC(C)=O)[C@@H]1C [rifapentine] ?
Outgoing: 0.512

Incoming: Item O=[N+]([O-])c1cn2c(n1)OC[C@@H](OCc1ccc(OC(F)(F)F)cc1)C2 [pretomanid] + CO[C@H]1/C=C/O[C@@]2(C)Oc3c(C)c(O)c4c(O)c(c(/C=N/N5CCN(C6CCCC6)CC5)c(O)c4c3C2=O)NC(=O)/C(C)=C\C=C\[C@H](C)[C@H](O)[C@@H](C)[C@@H](O)[C@@H](C)[C@H](OC(C)=O)[C@@H]1C [rifapentine] has what recorded FIC50?
Outgoing: 0.383

Incoming: Return reported FIC50; argument: COc1c(N2C[C@@H]3CCCN[C@@H]3C2)c(F)cc2c(=O)c(C(=O)O)cn(C3CC3)c12 [moxifloxacin] + O=[N+]([O-])c1cn2c(n1)OC[C@@H](OCc1ccc(OC(F)(F)F)cc1)C2 [pretomanid]
Outgoing: 0.607

Incoming: Would you kindly share the measured FIC50 for CC[C@@H](CO)NCCN[C@@H](CC)CO [ethambutol] + CO[C@H]1/C=C/O[C@@]2(C)Oc3c(C)c(O)c4c(O)c(c(/C=N/N5CCN(C)CC5)c(O)c4c3C2=O)NC(=O)/C(C)=C\C=C\[C@H](C)[C@H](O)[C@@H](C)[C@@H](O)[C@@H](C)[C@H](OC(C)=O)[C@@H]1C [rifampicin] ?
Outgoing: 0.236

---

System: Mycobacterium tuberculosis Erdman (autoluminescent)
measurementProtocol: Einf, fitted maximum growth inhibition of combination (fraction); higher = stronger maximal inhibition
conditionParameters: in vitro model: cholesterol-high 0.2 mM; time point: constant (~7 days, model-specific)
measuredMetric: Einf
The answer should be a number; do not append a unit.

Incoming: Can you share its Einf? I mean this compound: CC(=O)NC[C@H]1CN(c2ccc(N3CCOCC3)c(F)c2)C(=O)O1 [linezolid] + CO[C@H]1/C=C/O[C@@]2(C)Oc3c(C)c(O)c4c(O)c(c(/C=N/N5CCN(C6CCCC6)CC5)c(O)c4c3C2=O)NC(=O)/C(C)=C\C=C\[C@H](C)[C@H](O)[C@@H](C)[C@@H](O)[C@@H](C)[C@H](OC(C)=O)[C@@H]1C [rifapentine]
Outgoing: 0.966

Incoming: Fill in the blank: the reported Einf of COc1c(N2C[C@@H]3CCCN[C@@H]3C2)c(F)cc2c(=O)c(C(=O)O)cn(C3CC3)c12 [moxifloxacin] + CO[C@H]1/C=C/O[C@@]2(C)Oc3c(C)c(O)c4c(O)c(c(/C=N/N5CCN(C6CCCC6)CC5)c(O)c4c3C2=O)NC(=O)/C(C)=C\C=C\[C@H](C)[C@H](O)[C@@H](C)[C@@H](O)[C@@H](C)[C@H](OC(C)=O)[C@@H]1C [rifapentine] is ____.
Outgoing: 0.903

Incoming: So what's the measured Einf for this one? CC[C@@H](CO)NCCN[C@@H](CC)CO [ethambutol] + CO[C@H]1/C=C/O[C@@]2(C)Oc3c(C)c(O)c4c(O)c(c(/C=N/N5CCN(C)CC5)c(O)c4c3C2=O)NC(=O)/C(C)=C\C=C\[C@H](C)[C@H](O)[C@@H](C)[C@@H](O)[C@@H](C)[C@H](OC(C)=O)[C@@H]1C [rifampicin]
Outgoing: 0.952
